Data origin, for the record: ChEMBL document CHEMBL1961873

# Target Entity: Serine/threonine-protein kinase Nek9 (Homo sapiens);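 note: reported value is the mean percent inhibition of NEK9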
# Test Conditions: at 0.1 µM
Property Name: inhibition (%)
Provide only the numeric value, understood in %.

{"columns": ["Smiles Entry", "Experimental Result"],
 "data": [
  ["Nc1ncnc2occ(-c3ccc(NC(=O)Nc4cc(C(F)(F)F)cc(C(F)(F)F)c4)cc3)c12", 5.43]
]}

Ask: I am curious: what inhibition value has been reported for "COc1cc2ncn(-c3cc(O[C@@H](C)c4ccccc4Cl)c(C(N)=O)s3)c2cc1OC" ?
Reply: 7.99

Ask: I am curious: what inhibition value has been reported for "CCn1c(-c2nonc2N)nc2cnc(Oc3cccc(NC(=O)c4ccc(OCCN5CCOCC5)cc4)c3)cc21" ?
Reply: 7.58

Ask: I am curious: what inhibition value has been reported for "CCCN1CCC=C(c2ccc(Nc3nc(Nc4ccccc4C(N)=O)c4cc[nH]c4n3)c(C)c2)C1" ?
Reply: 7.78

Ask: I am curious: what inhibition value has been reported for "Cc1ccc(C(=O)NC2CCCCC2)cc1-c1ccc(C(=O)NCC2CC2)cc1" ?
Reply: -0.48
